Protocol Details: Toxicity liver stage against HepG2, at 10uM
Type: cell-based
Set-up: test concentration 10 uM, cell line HepG2-A16-CD81EGFP
Experimental Setup: human, HepG2-A16-CD81EGFP cells; read-out: INHIBITION
Recorded Metric: cytotoxicity at 10 µM (%)
All answers are understood in %, so give the number only.

Use the examples below as a reference point.
* COCCN1CCC(CNC(=O)c2c[nH]c(=O)c(Cl)c2)CC1 | 9.05
* CCC(O)CN1CCN(C(=O)c2ccn(-c3ccccc3)n2)CC1 (stereo unspecified) | -9.33
* CC(C)c1noc(CCCC(=O)NCC2CCS(=O)(=O)C2)n1 (stereo unspecified) | -22.3

Looking up Cc1cn(-c2ccccc2)nc1NS(=O)(=O)c1cccc(C(=O)O)c1 , I found its cytotoxicity at 10 µM recorded as -10.3

For CC1=C(C(=O)N2CCCC(Cn3cc(CO)nn3)C2)OCCO1 (stereo unspecified) the compound record lists cytotoxicity at 10 µM as 0.92

Reported cytotoxicity at 10 µM for O=C(NCc1cc[nH]n1)NCC(c1ccccc1)N1CCOCC1 (stereo unspecified) was -3.39

====

Catalogue of cytotoxicity at 10 µM values
Protocol Details: Toxicity liver stage against HepG2, at 10uM
Type: cell-based
Set-up: test concentration 10 uM, cell line HepG2-A16-CD81EGFP
Experimental Setup: human, HepG2-A16-CD81EGFP cells; read-out: INHIBITION
The reply should contain only the number, in %.

Worked set:
• COc1ccc(C)cc1CC(=O)NC1(C#N)CCOCC1 = 6.18
• Cc1ccc2nc(C)c(C)c(C(=O)N[C@H]3COC[C@@H]3N3CCCC3)c2c1 = -45.8

Lab book: cytotoxicity at 10 µM of O=C(Cc1ccccc1Cl)NCC1CCN(Cc2ccsc2)CC1 noted as -9.12

Per the records, this molecule ( CCn1c(CN2CCCC(O)(c3ccc(F)cc3)CC2)cnc1SC (configuration not stated) ) has cytotoxicity at 10 µM equal to -0.466

Looking up Cc1nc[nH]c1CN1C[C@H]2CC[C@@H](C1)N(C(=O)CCc1cccnc1)C2 , I see its cytotoxicity at 10 µM listed as -14.2

====

Protocol Details: Toxicity liver stage against HepG2, at 10uM
Format: cell-based
Design: test concentration 10 uM, cell line HepG2-A16-CD81EGFP
Experimental Setup: human, HepG2-A16-CD81EGFP cells; read-out: INHIBITION
Recorded Metric: cytotoxicity at 10 µM (%)
Record the value in %, omitting the unit from your answer.

- OCC1CCCCN1Cc1cc(O)c2cccc(F)c2n1 (centres undefined): -0.357

Measured cytotoxicity at 10 µM, O=C(CCNc1ncccn1)Nc1ccc(Cn2cncn2)cc1 : 2.5

For record COc1cc(C2(C(=O)NCCn3ccnc3)CCCC2)ccc1C the listed cytotoxicity at 10 µM is 8

====

Protocol Details: Toxicity liver stage against HepG2, at 10uM
Assay type: cell-based
Set-up: test concentration 10 uM, cell line HepG2-A16-CD81EGFP
Experimental Setup: human, HepG2-A16-CD81EGFP cells; read-out: INHIBITION
Recorded Metric: cytotoxicity at 10 µM (%)
Give your result in % as a bare value.

* Cc1oc(C(=O)O)cc1S(=O)(=O)Nc1ccc(Cl)cc1F | -0.354

Recorded cytotoxicity at 10 µM (compound CC(c1ccncn1)N(C)Cc1cc2cc3c(cc2[nH]c1=O)OCO3 (stereo unspecified) ): 9.83

GET /value?item= FC(F)(F)c1cc(-c2cccs2)nc(N2CCN3CCCC3C2)n1 (stereo unspecified) &field=cytotoxicity at 10 µM returns 10.7

The compound CCC(CO)N(Cc1ccco1)C(=O)c1cccc(C)c1O (stereo unspecified) showed cytotoxicity at 10 µM equal to 0.126

Briefly, cytotoxicity at 10 µM measured for Cc1cccc(NS(=O)(=O)c2cc3c(c(C(=O)O)c2)OCCO3)c1 : -3.44

Record CNC(=O)N1C[C@@H]2C[C@H](C(=O)NCc3cccnc3)[C@H](C1)O2 . Reported cytotoxicity at 10 µM: 6.43

For record CCOCC1CN(C(=O)Cc2ccccn2)Cc2c1cnn2C (stereo unspecified) the listed cytotoxicity at 10 µM is -72

For reference, reported cytotoxicity at 10 µM for OCC(CO)N1CCC(c2nnc(Cn3ccnc3)n2C2CC2)CC1 stands at -4.36

// recorded cytotoxicity at 10 µM for CCCS(=O)(=O)N1Cc2nccn2CC(CN(C)C)C1 (stereo unspecified) : -106

Data point: CN(Cc1ccco1)C(=O)C1=NN(C)C(=O)CC1 ; cytotoxicity at 10 µM = -144

What the record says about CNS(=O)(=O)CCCN1CCCC1c1cc(C)on1 (stereo unspecified) : cytotoxicity at 10 µM is -6.31

====

Protocol Details: Toxicity liver stage against HepG2, at 10uM
Format: cell-based
Parameters: test concentration 10 uM, cell line HepG2-A16-CD81EGFP
Experimental Setup: human, HepG2-A16-CD81EGFP cells; read-out: INHIBITION
Recorded Metric: cytotoxicity at 10 µM (%)
Provide only the numeric value, understood in %.

Sample answers from the record:
• CC(C)(C)n1ncc2c1NC(=O)CC2c1c(F)cccc1F (configuration not stated) = -1.53
• COCC[C@]1(O)CCN(CC(=O)NCc2ccccn2)C[C@H]1C = 7.8
• CC(=O)N(Cc1ccoc1)C1CCCCC1 = -2.86
• Nc1nc2c(c(NC(=O)Nc3ccc(Cl)c(Cl)c3)n1)CCCC2 = -6.92
• Cc1cc(=O)n(CC(=O)NCC2CCCO2)c(-c2cccc(Cl)c2)n1 (configuration not stated) = -11

Reported cytotoxicity at 10 µM of Cc1ccnc2c1NC(=O)CN2C(=O)CCc1cccs1 : -19.5

Field cytotoxicity at 10 µM (entry Cn1cc(CNC2CC3(CCN(S(C)(=O)=O)CC3)c3ccccc32)cn1 (configuration not stated) ) reads -110

====

Protocol Details: Toxicity liver stage against HepG2, at 10uM
Format: cell-based
Design: test concentration 10 uM, cell line HepG2-A16-CD81EGFP
Experimental Setup: human, HepG2-A16-CD81EGFP cells; read-out: INHIBITION
Recorded Metric: cytotoxicity at 10 µM (%)
Express your answer in %, writing the number without its unit.

Look over these answered cases.
* CCN(CC)C(=O)CCNC(=O)N1CCC(c2ccccc2)C1 (stereo unspecified) | -3.26
* COC(=O)c1ccc(CN[C@@H]2COC[C@H]2Cc2cc(C)no2)cc1 | -23
* Cc1nn(C)c(C)c1C1CCCN1C(=O)CCNS(C)(=O)=O (stereo unspecified) | -26
* COc1ccc(N2CCN(C[C@@H](C)CO)CC2=O)cc1 | 1.99
* O=C(O)c1cc(-c2ccoc2)cc(S(=O)(=O)NC2CC2)c1 | -2.18

Query Cc1ccc(CN(c2cc(C)nc3nc(C(F)(F)F)nn23)C2CC2)cc1 yields cytotoxicity at 10 µM of -4.12

# cytotoxicity at 10 µM of COc1cccc(OCC2CCCN(C(=O)CCc3cc(O)no3)C2)c1 (stereo unspecified) = 0.611

Value of cytotoxicity at 10 µM reported for the molecule NC(=O)N1CC(OCc2cccc3ccccc23)C1 is -0.396

COc1ccc(C(=O)CCC(=O)NCc2ncc(C)s2)cc1F has a reported cytotoxicity at 10 µM of -11.8

For this molecule ( CCCN1CC2(CCN(c3cc(C4CC4)ncn3)CC2)CC1C(=O)O (stereo unspecified) ), measured cytotoxicity at 10 µM is -9.88

Just so you know, measured cytotoxicity at 10 µM for Cc1c(C(C)NC(=O)N2CCN(C3CCCC3)CC2)cnn1C (stereo unspecified) came out at 3.02

====

The molecules listed here are annotated with their cytotoxicity at 10 µM.
Protocol Details: Toxicity liver stage against HepG2, at 10uM
Format: cell-based
Design: test concentration 10 uM, cell line HepG2-A16-CD81EGFP
Experimental Setup: human, HepG2-A16-CD81EGFP cells; read-out: INHIBITION
Give your result in % as a bare value.

Reported cytotoxicity at 10 µM for Cc1cccc(N2CCN(C(=O)Cc3ccccc3O)C(C)C2)n1 (centres undefined) was 13.5

====

Protocol Details: Toxicity liver stage against HepG2, at 10uM
Format: cell-based
Design: test concentration 10 uM, cell line HepG2-A16-CD81EGFP
Experimental Setup: human, HepG2-A16-CD81EGFP cells; read-out: INHIBITION
// reported cytotoxicity at 10 µM per item
The reply should be a number in %, with the unit left off.

• CCN(Cc1cc(=O)n2cc(Br)ccc2n1)C1CC1 = 7.95
• O=C(c1cccc(S(=O)(=O)NCCCc2ccco2)c1)N1CCOCC1 = -23.6
• O=c1c2cccc(C(F)(F)F)c2ncn1CCN1CCNCC1 = -3.21
• CCc1nc(C2CCCN2C(=O)c2cc3c(s2)CCC3)no1 (stereo not drawn) = -5.86
• CCc1nc(Cn2c(=O)n(C)c3ccccc32)no1 = -45.1

Reported cytotoxicity at 10 µM of CCCn1nc(C(=O)NCc2nnc3n2CCC3)ccc1=O : -3.18

Documented cytotoxicity at 10 µM of CNC(=O)C1(c2cnccn2)CCCN1C(=O)c1ccccc1 (stereo not drawn) : -20.6

Input CCc1nc(CN2CCCC2C(=O)NC)cs1 (stereo not drawn) . Output cytotoxicity at 10 µM: -3.09

Form field cytotoxicity at 10 µM, entry Cc1cc(CN2CCc3cncnc3C2)no1 : 5.84

Summary for this molecule, COC[C@@]12CCO[C@@H]1CCN(Cc1ccc(C)s1)C2 : cytotoxicity at 10 µM is -91.9

cytotoxicity at 10 µM reading for NC(=O)c1cccc(CN2CCc3c(ncn3C3CC3)C2)c1 : -4.6

Item: Cc1c[nH]c(C2CCCN2C(=O)CCc2c(C)n[nH]c2C)n1 (stereo not drawn) | cytotoxicity at 10 µM: -1.4

Value of measured cytotoxicity at 10 µM for the entry CNC(=O)CSc1nc2c(cnn2Cc2ccc(F)cc2)c(=O)[nH]1 : -16
